MEASUREMENT_DESCRIPTION: gradient 5% acetonitrile 3 min, to 50% in 2 min, to 85% in 15 min, held 3 min, 100 µL/min
CONDITION: column: Zorbax Extend-C18 2.1 x 50 mm; eluents: water / acetonitrile, 0.1% formic acid
Recorded RP-LC retention time values for a group of molecules are listed next.

MOLECULE: Cc1cc(C)c(NC(=O)Cn2c(=O)cc(-c3nc(C4CC4)no3)c3ccccc32)c(C)c1
ASSAY_VALUE: 999 s

MOLECULE: O=C(NCC1CCCO1)c1nc(-c2ccnc(N3CCCCCC3)c2)no1 (centres undefined)
ASSAY_VALUE: 641 s

MOLECULE: COc1ccc(NC(=O)N2CCC(n3c(-c4ccoc4)nc4cccnc43)C2)cc1F (centres undefined)
ASSAY_VALUE: 725 s

Consider the additional molecule presented here.
[ask] Any idea what RP-LC retention time was measured for "COc1ccc(-c2nnc(SCC(=O)Nc3ccc(S(N)(=O)=O)cc3)o2)cc1" ?
[reply] 736 s
